The origin of these recorded values is patent US20200239537A1.

Target: T1, wild-type rat apelin receptor tagged at its C-terminus with EGFP (rat, UniProt Q9JHG3 1-377)
T1 construct: whole, on cells; Used as crude membrane preparations from CHO cells stably expressing the receptor; also called wild-type rat apelin receptor-EGFP; not shown: EGFP tag at the C-terminus
T1 sequence (looked up): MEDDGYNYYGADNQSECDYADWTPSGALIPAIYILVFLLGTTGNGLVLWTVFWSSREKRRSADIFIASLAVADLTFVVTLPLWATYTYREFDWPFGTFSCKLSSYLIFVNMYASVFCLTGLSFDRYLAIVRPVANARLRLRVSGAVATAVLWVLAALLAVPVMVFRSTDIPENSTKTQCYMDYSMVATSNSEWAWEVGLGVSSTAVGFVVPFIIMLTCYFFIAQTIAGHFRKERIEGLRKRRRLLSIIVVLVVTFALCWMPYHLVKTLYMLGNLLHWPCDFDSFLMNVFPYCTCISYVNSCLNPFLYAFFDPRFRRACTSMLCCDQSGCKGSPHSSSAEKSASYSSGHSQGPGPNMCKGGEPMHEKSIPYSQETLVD
Assay: displacement of 0.2 nM [125I]-pyr-1-apelin-13; membranes of CHO cells expressing rat apelin receptor-EGFP
*1 amine or outer side, *2 acyl side, *3 side chain or, on linkers, in order; H or OH if unused. Where no end group is shown, it is not given here. [ ]: non-standard residue; d: D form. azaArg = aza-arginine, alpha-carbon replaced by nitrogen, N=C(N)NCCCN(N[*:1])C(=O)[*:2]; Phe(4-Br) = N[C@@H](Cc1ccc(Br)cc1)C(=O)O; azaLeu = CC(C)CN(N[*:1])C(=O)[*:2]; αMeR = C[C@](N)(CCCNC(=N)N)C(=O)O; NMeL = CN[C@@H](CC(C)C)C(=O)O; αMeL = CC(C)C[C@](C)(N)C(=O)O; Nle = CCCC[C@H](N)C(=O)O; Aib = CC(C)(N)C(=O)O
Each item that follows carries a reported Ki.
Report as a plain number; the unit pM is understood.

Task: Any idea what its Ki is? The binder is KFRRQRPR[αMeL]SHKGP[Nle][Aib][Phe(4-Br)] [α-MeLeu9-apelin-17 A2 (15)]
Output: 180

Task: Record request: Ki value, item KFRRQRPR[azaLeu]SHKGP[Nle][Aib][Phe(4-Br)] [azaLeu9 apelin-17 A2 peptide (19)]
Output: 150

Task: Quick check: Ki of KFRRQRP[azaArg]LSHKGP[Nle][Aib][Phe(4-Br)] [azaArg8-apelin-17 A2 (17)] ?
Output: 140

Task: Recorded Ki of KFRRQRP[αMeR]LSHKGP[Nle][Aib][Phe(4-Br)] (also called α-MeArc8-apelin-17 A2) [α-MeArg8-apelin-17 A2 (13)] , please.
Output: 130

Task: Recorded Ki of KFRRQRPR[NMeL]SHKGP[Nle][Aib][Phe(4-Br)] (also called Apelin-NMe17A2; NMeLeu-17A2) [N-MeLeu9-apelin-17 A2 (11)] , please.
Output: 450
